- Tested system: GCGR extracellular domain (human, UniProt P47871)
- Sequence (P47871 26-477): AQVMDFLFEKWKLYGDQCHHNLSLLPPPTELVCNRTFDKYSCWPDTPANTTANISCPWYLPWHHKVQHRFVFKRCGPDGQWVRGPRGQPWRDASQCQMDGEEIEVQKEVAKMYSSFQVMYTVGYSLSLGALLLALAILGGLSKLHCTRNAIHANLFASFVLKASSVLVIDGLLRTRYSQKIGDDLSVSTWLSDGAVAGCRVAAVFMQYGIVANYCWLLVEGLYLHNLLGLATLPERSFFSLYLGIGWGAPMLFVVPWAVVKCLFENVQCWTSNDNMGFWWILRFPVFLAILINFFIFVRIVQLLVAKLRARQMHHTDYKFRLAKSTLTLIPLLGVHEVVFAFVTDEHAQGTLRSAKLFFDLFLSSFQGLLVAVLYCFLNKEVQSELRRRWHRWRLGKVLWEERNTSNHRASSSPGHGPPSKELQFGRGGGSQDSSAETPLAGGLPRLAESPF
- Experiment summary: SPR
Give Kd for every item shown.
Answer in nM, number only, no unit symbol.

Request: Form field: reported Kd of VH Y100bA (antibody, V domains shown) VH: EVQLVESGGGLVQPGGSLRLSCAASGFNIYYNYIHWVRQAPGKGLEWVAEFSPYSGSTYYADSVKGRFTISADTSKNTAYLQMNSLRAEDTAVYYCARSAAIVDWADYFKGFDYWGQGTLVTVSS VL: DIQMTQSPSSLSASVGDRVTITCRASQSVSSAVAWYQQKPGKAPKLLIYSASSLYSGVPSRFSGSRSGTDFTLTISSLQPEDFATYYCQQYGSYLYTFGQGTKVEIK
Response: 3.54

Request: May I ask what Kd has been recorded for VH Y31T (antibody, V domains shown) VH: EVQLVESGGGLVQPGGSLRLSCAASGFNIYTNYIHWVRQAPGKGLEWVAEFSPYSGSTYYADSVKGRFTISADTSKNTAYLQMNSLRAEDTAVYYCARSAAIVDWYDYFKGFDYWGQGTLVTVSS VL: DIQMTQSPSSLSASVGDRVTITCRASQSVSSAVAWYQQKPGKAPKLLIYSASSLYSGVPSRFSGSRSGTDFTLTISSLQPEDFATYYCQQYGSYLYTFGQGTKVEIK ?
Response: 194
